Parameter: Mean IC80, pSV neutralization. Scope: all listed entries.
# Tested On: SARS-CoV-2 S on pseudovirions (Wuhan Hu-1 / IL1/2020, last 18 amino acids removed) (SARS-CoV-2, UniProt P0DTC2 14-1273)
# Assay Summary: cell-based or functional assay

| Binder | Rel | Mean IC80, pSV neutralization (µg/ml) |
| --- | --- | --- |
| COV_2151 (antibody, V domains shown, human IgG1) VH: QVQLQESGPRLVKPSETLSLTCTVSGGSISGSNYFWGWIRQPPGKGLEWIGTIYYGGSTYYNPSLKSRVTISVDTSENQFSLKLSSVTAADTAVYYCANLAWLRGYFDYWGQGTLVTVSS VL: NFMLTQPHSVSESPGKTVTISCTRSSGSIASNYVQWYQQRPGSAPTTVIYEDNQRPSGVPDRFSGSIDSSSNSVSLTISGLKTEDEADYYCQSYDSSNWVFGGGTKLTVL | = | 1.21 |
| COV_2196 (antibody, V domains shown, human IgG1) VH: QVQLVQSGAEVKKPGASVKVSCKVSGYTLIELSMHWVRQAPGKGLEWMGGFDPEDAKTIYAQKFQGRVTMTEDTSTDTAYMELSSLTFEDTAVYYCATTPAFMAAAGDFDYWGQGTLVTVSS VL: QPVLTQPSSVSVSPGQTATITCSGDVLAKKYARWFQQKPGQAPMLVIYKDTERPSGIPERFSGSSSGTTVTLTINGAQVEDEADYYCYSAAAWVFGGGTKLTVL | = | 23.4 |
| COV_2024 (antibody, V domains shown, human IgG1) VH: QVQLVQSGAEVRKPGSSVKVSCKASGGTFSTYAISWVRQAPGQGLEWMGGIIPMFGTTNYAQKFQGRVTITADESTRTAYMELSSLRSEDTAVYYCARDGGYDSWPDFDYWGQGTLVTVSS VL: EIVLTQSPATLSLSPGERATLSCRASQSISSFLAWYQQKPGQAPRLLIYDASNRATGIPARFSGSGSGTDFTLTVSSLEPEDFAVYYCHQRRNWPPIKTFGQGTKVDIK | ≥ | 25 |
